TARGET_OF_ASSAY: Human MIF tautomerase activity (HPP) (Homo sapiens, UniProt P14174)
Construct: made in house
Sequence (P14174 2-115 limits assumed): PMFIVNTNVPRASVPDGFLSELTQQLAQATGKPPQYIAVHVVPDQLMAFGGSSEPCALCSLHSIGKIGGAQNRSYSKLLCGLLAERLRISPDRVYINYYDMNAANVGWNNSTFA
PROTOCOL_DETAILS: HPP tautomerase assay
Assay type: biochemical
CONDITION_NOTES: Table 2, other series
pIC50: −log10 of the molar value.
EXPERIMENTAL_READOUT: pIC50

- O=C(c1cc2ccccc2o1)c1cc2ccccc2o1: 3.29

###

# pIC50 per entry
TARGET_OF_ASSAY: MIF-CD74 binding (biotinylated recombinant human MIF / immobilized CD74 ectodomain) (Homo sapiens)
Sequence (P14174 2-115 limits assumed): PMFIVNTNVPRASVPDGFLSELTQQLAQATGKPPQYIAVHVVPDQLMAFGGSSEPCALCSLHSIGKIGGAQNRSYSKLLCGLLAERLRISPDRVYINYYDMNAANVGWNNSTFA
PROTOCOL_DETAILS: MIF-CD74 binding (capture) assay
CONDITION_NOTES: Table 1, benzooxazolones B; inhibition of MIF-CD74 binding
pIC50: −log10 of the molar value.
EXPERIMENTAL_READOUT: pIC50

• COc1cccc(Cn2c(=O)oc3ccc(C)cc32)c1 [Compound 5] = 3.52
• COc1cccc(Cn2c(=O)oc3ccc(CO)cc32)c1 [Compound 4] = 3.30
• COc1cccc(Cn2c(=O)oc3ccc(OC)cc32)c1 [Compound 3] = 3.70

###

Recorded Capture % Max. Inhib. values for a group of compounds are listed next.
TARGET_OF_ASSAY: MIF-CD74 binding (biotinylated recombinant human MIF / immobilized CD74 ectodomain) (Homo sapiens)
PROTOCOL_DETAILS: MIF-CD74 binding (capture) assay
CONDITION_NOTES: Table 3, benzothiazolones; capture assay
EXPERIMENTAL_READOUT: Capture % Max. Inhib. (%)

- COc1ccccc1-n1sc2ccc(Cl)cc2c1=O: 7
- O=c1c2cc(C(F)(F)F)ccc2sn1-c1ccc(Cl)cc1: 12
- O=c1c2ccc(Br)cc2sn1-c1ccc(Cl)cc1: 10
- O=c1c2ccc(F)cc2sn1-c1cccc(CO)c1: 8
- O=c1c2cc([N+](=O)[O-])ccc2sn1-c1ccc(Cl)cc1: 11
- N#Cc1ccc2c(=O)n(-c3ccc(Cl)cc3)sc2c1: 16
- CC(=O)OCc1cccc(-n2sc3cc(F)ccc3c2=O)c1: 12
- O=c1c2cc(F)ccc2sn1-c1cccc(O)c1: 13
- O=c1c2cc(F)ccc2sn1-c1ccc(Cl)cc1: 7

Measured values drawn from patent US20120040974A1 for this set.
